experimentalDetails: Plasma concentration in NMRI mouse at 1 mg/kg, ip after 30 mins by HPLC-MS/MS analysis
Assay type: ADME, organism-based
Parameters: dose 1 mg/kg, route intraperitoneal
measuredAttribute: concentration at 0.5 h (nM)

Study these solved cases before continuing.
CCC1(CCCCN2CCN(c3ccc(F)cc3)CC2)C(=O)Nc2ccccc21 (stereo not drawn) ... 34
O=C1Nc2ccccc2C1CCCCN1CCN(c2cccc(Cl)c2)CC1 (stereo not drawn) ... 21
CCC1(CCCCN2CCN(c3ccc(Cl)cc3)CC2)C(=O)Nc2ccccc21 (stereo not drawn) ... 70
CCC1(CCCCN2CCN(c3ccc(Cl)c(Cl)c3)CC2)C(=O)Nc2ccccc21 (stereo not drawn) ... 31
CCC1(CCCCN2CCN(c3ccc(Cl)cc3)CC2)C(=O)Nc2cc(F)ccc21 (stereo not drawn) ... 46

(I) CCC1(CCCCN2CCN(c3ccc(Cl)cc3)CC2)C(=O)Nc2ccc(Cl)cc21 (stereo not drawn)
(II) CCC1(CCCCN2CCN(c3ccc(Cl)cc3)CC2)C(=O)Nc2ccc(F)cc21 (stereo not drawn)
(III) CCC1(CCCCN2CCN(c3cccc(Cl)c3)CC2)C(=O)Nc2ccccc21 (stereo not drawn)
q: Sort these compounds on concentration at 0.5 h so the largest reading comes first. The response must list the labels following the requested ordering.
a: II, III, I
